// data source = paper PMC7076440

test: Pharmacokinetic study in beagle dogs; type: in vivo; conditions: male, beagle, dog, plasma, po, 10 mg/kg, capsule with MCC, beagle dogs, mean ± SD
quantityMeasured: half-life (h)
Only the number, expressed in h, is required.

Sample CN1CCN(Cc2ccc(-c3cnc(N4CCOC(Cn5nnc6ncc(-c7cnn(C)c7)nc65)C4)nc3)cc2)CC1 (stereo not shown) — what was its half-life?
7.7

###

test: Pharmacokinetic study in beagle dogs; type: in vivo; conditions: male, beagle, dog, plasma, po, 5 mg/kg, capsule with MCC, beagle dogs, mean ± SD
quantityMeasured: AUC(0-t) (ng·h/mL)
Only the number, expressed in ng·h/mL, is required.

Sample CN1CCN(Cc2ccc(-c3cnc(N4CCOC(Cn5nnc6ncc(-c7cnn(C)c7)nc65)C4)nc3)cc2)CC1 (stereo not shown) — what was its AUC(0-t)?
409

###

assay: Pharmacokinetic study in beagle dogs; format: in vivo; conditions: male, beagle, dog, plasma, po, 5 mg/kg, capsule without MCC, beagle dogs, mean ± SD
quantityMeasured: MRT last (h)
Only the number, expressed in h, is required.

Sample CN1CCN(Cc2ccc(-c3cnc(N4CCOC(Cn5nnc6ncc(-c7cnn(C)c7)nc65)C4)nc3)cc2)CC1 (stereo not shown) — what was its MRT last?
6.4

###

assay: Pharmacokinetic study in beagle dogs; assay type: in vivo; details: male, beagle, dog, plasma, po, 5 mg/kg, capsule without MCC, beagle dogs, mean ± SD
quantityMeasured: AUC(0-t) (ng·h/mL)
Only the number, expressed in ng·h/mL, is required.

Sample CN1CCN(Cc2ccc(-c3cnc(N4CCOC(Cn5nnc6ncc(-c7cnn(C)c7)nc65)C4)nc3)cc2)CC1 (stereo not shown) — what was its AUC(0-t)?
409

###

Experiment: Pharmacokinetic study in beagle dogs
Format: in vivo
Conditions: male, beagle, dog, plasma, po, 10 mg/kg, capsule with MCC, beagle dogs, mean ± SD
Method: Male beagle dogs were purchased from Marshall, Beijing, China. They were housed under controlled humidity, temperature, and a 12L:12D lighting schedule. […] This study was reviewed, assessed, and approved by the Institutional Animal Care and Use Committee (IACUC) of the Korea Institute of Toxicology (KIT). […] After centrifugation at 13,200 rpm for 5 min, quantitative analysis was performed using LC-MS/MS. […]
quantityMeasured: Tmax (h)
Only the number, expressed in h, is required.

Sample CN1CCN(Cc2ccc(-c3cnc(N4CCOC(Cn5nnc6ncc(-c7cnn(C)c7)nc65)C4)nc3)cc2)CC1 (stereo not shown) — what was its Tmax?
2

###

test: Pharmacokinetic study in beagle dogs; format: in vivo; conditions: male, beagle, dog, plasma, iv, 1 mg/kg, beagle dogs, mean ± SD
quantityMeasured: Cmax (ng/mL)
Only the number, expressed in ng/mL, is required.

Sample CN1CCN(Cc2ccc(-c3cnc(N4CCOC(Cn5nnc6ncc(-c7cnn(C)c7)nc65)C4)nc3)cc2)CC1 (stereo not shown) — what was its Cmax?
308

###

test: log D / log P, octanol/water; format: physicochemical; conditions: run 1, from log D and pKa (Henderson-Hasselbalch)
quantityMeasured: logP at 24 h
// no unit string in output, number only

Sample CN1CCN(Cc2ccc(-c3cnc(N4CCOC(Cn5nnc6ncc(-c7cnn(C)c7)nc65)C4)nc3)cc2)CC1 (stereo not shown) [ABN401] — what was its logP at 24 h?
2.41

###

test: Equilibrium solubility at different pHs and excipients by HPLC; assay type: physicochemical; conditions: organic solvent or mixture, thermodynamic from solid; Cremophor EL (100 %)
quantityMeasured: solubility at 24 h (mg/mL)
Only the number, expressed in mg/mL, is required.

Sample CN1CCN(Cc2ccc(-c3cnc(N4CCOC(Cn5nnc6ncc(-c7cnn(C)c7)nc65)C4)nc3)cc2)CC1 (stereo not shown) — what was its solubility at 24 h?
14.1
